Reported growth values for a set of compounds
system: SK-MEL-5 melanoma; test: NCI-60 one-dose screen, 48 h (100 = growth as untreated, 0 = no growth, -100 = all killed); details: 10 µM unless noted
About 83,000 compounds went through this panel and 20% of them were active in at least one assay; those are over-represented in the sample as a whole.
value kind: growth (%)

{"columns": ["compound", "measured value"],
 "data": [
  ["C#CCNC(=O)[C@]1(C)CC[C@]2(C)CC[C@@H]3C(=CC[C@H]4[C@@]3(C)CC[C@H]3C(C)(C)C(=O)CC[C@]43C)[C@@H]2C1", 93.3],
  ["Cc1ccc(C(=O)/C(=C\\c2ccc([N+](=O)[O-])cc2)S(=O)Cc2ccc(Cl)cc2)cc1 (stereo unspecified)", 78.5],
  ["ClC1=C(Br)C(Br)(Br)C(=C(Br)Br)C1(Br)Br", 92.6],
  ["COc1ccc(N2CCN(c3ccc(NC4=C(Cl)C(=O)c5ncccc5C4=O)cc3)CC2)cc1", 50.5],
  ["N#C/C(=C\\c1ccc([N+](=O)[O-])s1)c1nc2cc(Cl)ccc2s1", -94.4],
  ["N/C(=N\\C(N)=N\\c1nc2ccccc2s1)c1cnccn1", -48.5],
  ["O=C(/C=C(O)/C=C/c1ccc(SC(F)(F)F)cc1)/C=C/c1ccc(SC(F)(F)F)cc1", 91.4],
  ["CC(C)N1C(=O)/C(=C2\\SC(=S)N(C(C)C)C2=O)SC1=S", 97.9],
  ["CCNC(=O)Oc1ccc(/C(=C(\\C)c2ccccc2)c2ccc(OCCCN(C)C)cc2)cc1", 80.9],
  ["COc1cc2nc(-c3ccc(Cl)cc3)cc(OCCCN3CCOCC3)c2cc1OC", -52.6],
  ["CCc1c(Cl)nc(N)nc1Nc1ccc(C)c(C)c1", 92.9],
  ["Cc1cc2cc3ccc(N(C)C)cc3nc2cc1N", -0.276],
  ["COc1cc2c(=O)n(CCCN(C)C)c3c4cc5c(cc4ccc3c2cc1OC)OCO5", 71],
  ["COc1ccc(C(=O)c2cc(C)c(OC)c(C)c2)c(OC)c1NC(C)=O", 20.6],
  ["CCCCCOc1ccc(/C=N/Nc2cc(C)nc3ccc(Cl)cc23)cc1", 74.2],
  ["O=C1CC(=O)OC(c2ccc([N+](=O)[O-])cc2)O1", 18.4],
  ["OCc1cnccc1NCCCCOc1ccc(Oc2ccccc2)cc1", 15.7],
  ["CN1[C@@H]2CC[C@H]1/C(=C\\c1ccccc1)C(=O)/C2=C/c1ccccc1", 43.9],
  ["COc1ccc(-c2cnc3c(-c4cccc5ncccc45)cnn3c2)cc1", 22.3],
  ["COc1cc(/C=N/NC(=O)c2cnn3c2NC(c2ccccc2)C3)ccc1OCc1ccccc1 (stereo unspecified)", 5.94],
  ["NNC(=O)c1ccc(-n2nc(-c3ccccc3)c3ccccc32)cc1", 84.5]
]}
